testProtocol: Biotin-PGE2 ELISA (PGE2-biotinamide binding to captured IgG)
measurementSetup: Biotin-PGE2 0.1 μM
metricName: Binding to PGE2-Biotinamide (OD450)
Give the value as a plain number.

Query: Input K1B: human anti-PGE2 antibody from PROfusion mRNA display; VH SEQ ID NO 5, VL SEQ ID NO 9 (antibody, V domains shown) VH: EVQLVQSGAEVKRPGASVKVSCKTSGYTFTNYDINWVRLAPGQGLEWMGCMNPTTGKTGYAQKFQGRVTMTRDTTIATAYMELSRLTSEDTAVYYCARGRGYSPGYGVAYADYWGQGTLVTVSS VL: DIQLTQSPSSLPASVGDRVTITCRASQSISTYLNWYQQTPGKAPSLLIYAASSLQSGVPSRFSGSGSGTDFTLTISSLQPEDFATYYCQQSYSPPPTFGGGTKVEIKR , output reported Binding to PGE2-Biotinamide (OD450).
Result: 0.13
